Values compiled from patent US20260193326A1.

- SYSTEM_NAME: T1, AAV8 (adeno-associated virus 8)
- T1 construct: also called adeno-associated virus serotype 8
- ASSAY_SUMMARY: SPR, AAV amine-coupled to CM5 chip;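 further: nanobodies flowed as analyte at seven concentrations spanning 1–100 nM over immobilized AAV (500–800 RU), kinetic constants derived by fitting the binding curves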
Consider the following binders and their measured kon readings.
State the value, then name its unit.

Known kon results, listed for orientation:
# BINDER, PROPERTY_LABEL, REPORTED_VALUE
data = [
    ("A4-094 (VHH) VHH: VQLQESGGGLVQPGGSLRLSCVASGSIFVINTMGWYRQAPGKQRELVATVTRDGGTNYADSVKGRFTISRDNAKNTVYLQMNSLRPEDTAVYYCHIDEIRESSWTTSNLWGQGTQVTVSS", "kon", "6710 M⁻¹ s⁻¹"),
    ("A4-070 (VHH) VHH: VQLQESGGGLVQPGGSLRLSCAASGSIFSINSMGWYRQAPGKWRELVATVTRGGSTNYANSVKGRFTISRDNAKNTVYLQMNTLRPEDTAVYYCHLDEVRDSSWTTSNLWGQGTQVTVSS", "kon", "9090 M⁻¹ s⁻¹"),
    ("A4-100 (VHH) VHH: VQLQESGGGLVQPGGSLRLSCAASGSIFVINTMGWYRQAPGKQRELVASLTRGGSTNYADSVKGRFTISRDNDKNTIYLQMNSLRPEDTAVYYCHVDEVRESTWTTSNIWGQGTQVTVSS", "kon", "98300 M⁻¹ s⁻¹"),
    ("A4-095 (VHH) VHH: VQLQESGGGLVQPGGSLRLSCAASGSSFSANTMGWYRQAPGKQRELVATITRGGNTNYGDSVKGRFTISRDNAKDTVYLQMNSLRPEDTAVYYCHIDEIRESTWTTSNLWGQGTQVTVSS", "kon", "116000 M⁻¹ s⁻¹"),
    ("A4-069 (VHH) VHH: VQLQESGGGLVQPGGSLRLSCAASGSIFTINSMGWYRQAPGKWRELVATVTRGGNTNYANSVKGRFTISRDNAKNTVYLQMNTLRPEDTAVYYCHLDEVRDSSWTTSNLWGQGTQVTVSS", "kon", "122000 M⁻¹ s⁻¹"),
    ("A4-060 (VHH) VHH: VQLQESGGGLVQPGGSLRLSCAASGSTFSLNTMGWYRQAPGKQREIVATVTRGGSTNYAESVKGRFTISRDNAKNTVYLQMNSLRPEDTAVYYCHVDEVRQSTWTTSNLWGQGTQVTVSS", "kon", "82900 M⁻¹ s⁻¹"),
    ("A4-083 (VHH) VHH: VQLQESGGGLVQTGGSLKLSCAASGSRFSLNTMGWYRQAPRKQREFVAAVTRGGNTNYGDFVKGRFTISRDNAKNTVYLQMNSLRPEDTAVYYCHVDELRESSWTTSNLWGQGTQVTVSS", "kon", "174000 M⁻¹ s⁻¹"),
    ("A4-053 (VHH) VHH: VQLQESGGGLVQPGGSLRLSCAASGSIFIINTMGWYRRAPGKQRELVAAVTRGGSTNYADSVKGRFTISRDNAKNTVYLQMNSLRPEDTAVYYCHVDEVRQSSWTTSNLWGQGTQVTVSS", "kon", "93200 M⁻¹ s⁻¹"),
    ("A4-057 (VHH) VHH: VQLQESGGGLVQPGGSLRLSCAASGSIFSINTMGWYRQAPGKQREKVAAVTRGGSTNYADSVKGRFTISRDNAKNTVYLQMNSLRPEDTAVYYCHVDEVRQSSWTTSNLWGQGTQVTVSS", "kon", "3020 M⁻¹ s⁻¹"),
    ("A4-080 (VHH) VHH: VQLQESGGGLVQPGGSLRLSCAASGSRFSLNTMGWYRQAPGKQRELVATVTRGGSTNYADFVKGRFTISRDNAKNTVYLQMNSLRPEDTAVYYCHVDELRESGWTTSNLWGQGTQVTVSS", "kon", "7220 M⁻¹ s⁻¹"),
]

Exercise: Which kon value belongs to A4-082 (VHH) VHH: VQLQESGGGLVQPGGSLRLSCAASGSRFSLNTMGWYRQAPGKQRELVATVTRGGSTKYADFVKGRFTISRDNAKNTVYLQMNSLRPEDTAVYYCHVDELRESGWTTSNLWGQGTQVTVSS ?
Solution: 3640 M⁻¹ s⁻¹

Exercise: Which kon value belongs to A4-079 (VHH) VHH: VQLQESGGGLVQPGGSLRLSCAASGTRFSINTMGWYRQAPGKQRELVANVTPAGSTNYADSVKGRFTISRDNAKNTVYLQMNSLRPEDTAVYYCHVDELRDSSWTTSNLWGQGTQVTVSS ?
Solution: 1180 M⁻¹ s⁻¹

Exercise: Which kon value belongs to A4-066 (VHH) VHH: VQLQESGGGLVQTGGSLRLSCAASGRAFSLNTMGWYRQAPGKQRELVATVTRGGSTNYAGSVKGRFTISRDNAKNTVYLQMNSLRPEDTAVYYCHVDEVRESSWTTSNLWGQGTQVTVSS ?
Solution: 92400 M⁻¹ s⁻¹

Exercise: Which kon value belongs to A4-064 (VHH) VHH: VQLQESGGGLVQSGGSLRLSCAASGRNFSLNTVGWYRQAPGKQRELVATVTSGGGTNYAGSVKGRFTISRDNAKNTVYLQMNSLRPEDTAVYYCHVDEVRESTWTTSNLWGQGTQVTVSS ?
Solution: 7500 M⁻¹ s⁻¹
